- Tested on: Vero E6 infected with SARS-CoV-2
- Experimental Details: morphology score (similarity to uninfected cells); higher = more like uninfected cells
- Test Parameters: 24 h
Everything with morphology score lower than 0.05 is false (0); everything else, including exactly 0.05, is true (1).

Take a look at these entries with their results.
[
  {
    "Compound": "C[C@@H](N)[C@@H](O)c1ccccc1 [1S,2R-phenylpropanolamine] (10 µM)",
    "Group Label": "false (0)"
  },
  {
    "Compound": "C/C=C1/[C@H](O[C@@H]2O[C@H](CO)[C@@H](O)[C@H](O)[C@H]2O)OC=C(C(=O)OC)[C@H]1CC(=O)OCCc1ccc(O)c(O)c1 [oleuropein] (10 µM)",
    "Group Label": "false (0)"
  },
  {
    "Compound": "CN1C(C(=O)Nc2ccccn2)=C(O)c2sc(Cl)cc2S1(=O)=O [lornoxicam] (10 µM)",
    "Group Label": "false (0)"
  },
  {
    "Compound": "NC1(c2ccc(-c3nc4ccn5c(=O)[nH]nc5c4cc3-c3ccccc3)cc2)CCC1 (0.833333 µM)",
    "Group Label": "true (1)"
  },
  {
    "Compound": "O=C1OC2(c3ccccc31)c1cc(I)c(O)c(I)c1Oc1c2cc(I)c(O)c1I [erythrosine] (0.833333 µM)",
    "Group Label": "true (1)"
  },
  {
    "Compound": "CC(C)COC(=O)c1ccc(N)cc1 [isobutamben] (10 µM)",
    "Group Label": "false (0)"
  }
]

Please look at the following compound next.
morphology score >= 0.05 for COc1ncc(-c2ccc3c(Nc4cc(Oc5cc(F)cc(F)c5)cc(C(=O)O)c4)c(S(=O)(=O)NC4CC4)cnc3c2)c(OC)n1 (10 µM) ?
false (0)
